Biological target: T1, human CD73 on CD73-expressing human tumor cells (MDA-MB-231, NCI-H292) (human, UniProt P21589 27-549)
T1 construct: whole, on cells; The cell line of each result is named under assay or readout; also called cell surface CD73; surface CD73
T1 sequence (looked up): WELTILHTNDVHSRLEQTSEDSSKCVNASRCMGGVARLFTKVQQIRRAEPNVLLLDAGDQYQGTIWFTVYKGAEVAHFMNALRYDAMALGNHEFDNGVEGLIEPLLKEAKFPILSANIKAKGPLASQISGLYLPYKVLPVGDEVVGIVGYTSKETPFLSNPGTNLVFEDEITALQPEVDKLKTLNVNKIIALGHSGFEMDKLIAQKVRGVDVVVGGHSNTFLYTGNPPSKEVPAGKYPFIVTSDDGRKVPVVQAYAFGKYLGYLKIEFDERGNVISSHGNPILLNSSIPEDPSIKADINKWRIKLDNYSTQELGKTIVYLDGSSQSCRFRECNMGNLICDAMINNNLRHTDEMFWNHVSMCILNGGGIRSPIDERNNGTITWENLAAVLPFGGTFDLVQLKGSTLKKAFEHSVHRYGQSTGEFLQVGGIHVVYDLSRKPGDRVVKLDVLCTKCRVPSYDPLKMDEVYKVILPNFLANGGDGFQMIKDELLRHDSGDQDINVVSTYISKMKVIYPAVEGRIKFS
Assay: flow cytometry on MDA-MB-231 and NCI-H292 cells (FIGS. 11A, 11B)

BINDER	binding result
N4#6-3 (antibody, human IgG2, V domains shown, also called N4 variant N4#6-3) VH: QVQLVQSGAEVKKSGSSVKVSCKASGGTFSSYAISWVRQAPGQGLEWMGGIIPIFGTANYAQKFQGRVTITADESTSIAYMELSSLRSEDTAVYYCASDGAVAAYDAFLIWGQGTMVTVSS VL: QAVLTQPSSVSGAPGQRVTISCTGTSSNIGLGYDIHWYQHLPGTAPKLLMYRFDRRPSGVPDRFSGSKSGTSASLTITGLQVEDEADYYCQSYDSGQRGWVFGGGTKLTVL	binds
N4#6-5 (antibody, human IgG2, V domains shown, also called N4 variant N4#6-5) VH: QVQLVQSGAEVKKSGSSVKVSCKASGGTFSSYAISWVRQAPGQGLEWMGRIIPIFGTTNYAQKFQGRVTITADESTSIAYMELSSLRSEDTAMYYCASDGAVAAYDAFLIWGQGTMVTVSS VL: QAVLTQPSSVSGAPGQRVTISCTGTSSNIGTGYDIHWYQQLPGTAPKLLMYRFTRRPSGVPDRFSGSKSGTSASLTITGLQVEDEADYYCQSYDSGQRGWVFGGGTKLTVL	binds
N4#6-4 (antibody, human IgG2, V domains shown, also called N4 variant N4#6-4) VH: QVQLVQSGAEVKKSGSSVKVSCKASGGTFSSYAISWVRQAPGQGLEWMGMIIPIFGTANYAQKFQGRVTITADESTSIAYMELSSLRSEDTAVYYCASDGAVAAYDAFLIWGQGTMVTVSS VL: QAVLTQPSSVSGAPGQRVTISCTGTSSNIGAGFDIHWYQQLPGTAPKLLMYRFSRRPSGVPDRFSGSKSGTSASLTITGLQVEDEADYYCQSYDSGQRGWVFGGGTKLTVL	binds
